Organism: Homo sapiens
assay-details: Cytotoxicity against the cancer cell lines CNS SF-539
Format: functional
Binary label based on GI50 with cut-off 2 µM: below gives 1 (yes), not below gives 0 (no).

[[record]]
compound = "C[C@]12CC[C@@H]3c4cc(OCCO)c(O)cc4CC[C@H]3[C@@H]1CC[C@@H]2O"
cat = "0 (no)"

[[record]]
compound = "CN(C)CC/N=C/c1cc2c(cc1O)CC[C@@H]1[C@@H]2CC[C@]2(C)[C@@H](O)CC[C@@H]12"
cat = "0 (no)"

[[record]]
compound = "CC#Cc1cc2c(cc1O)CC[C@@H]1[C@@H]2CC[C@]2(C)[C@@H](O)CC[C@@H]12"
cat = "1 (yes)"

[[record]]
compound = "C#Cc1cc2c(cc1O)CC[C@@H]1[C@@H]2CC[C@]2(C)[C@@H](O)CC[C@@H]12"
cat = "0 (no)"

[[record]]
compound = "C[C@]12CC[C@@H]3c4cc(/C=N/CCO)c(O)cc4CC[C@H]3[C@@H]1CC[C@@H]2O"
cat = "0 (no)"

[[record]]
compound = "C[C@]12CC[C@@H]3c4cc(/C=C/CO)c(O)cc4CC[C@H]3[C@@H]1CC[C@@H]2O"
cat = "1 (yes)"

[[record]]
compound = "C[C@]12CC[C@@H]3c4cc(C#N)c(O)cc4CC[C@H]3[C@@H]1CC[C@@H]2O"
cat = "0 (no)"

[[record]]
compound = "COc1cc2c(cc1O)CC[C@@H]1[C@@H]2CC[C@]2(C)[C@@H](O)CC[C@@H]12 [2-METHOXYESTRADIOL]"
cat = "1 (yes)"

[[record]]
compound = "C[C@]12CC[C@@H]3c4cc(C#Cc5ccccc5)c(O)cc4CC[C@H]3[C@@H]1CC[C@@H]2O"
cat = "0 (no)"

